molecular target: human c-Met (human, UniProt P08581 25-1390); assay: cell-based or functional assay
Sequence (P08581 25-1390): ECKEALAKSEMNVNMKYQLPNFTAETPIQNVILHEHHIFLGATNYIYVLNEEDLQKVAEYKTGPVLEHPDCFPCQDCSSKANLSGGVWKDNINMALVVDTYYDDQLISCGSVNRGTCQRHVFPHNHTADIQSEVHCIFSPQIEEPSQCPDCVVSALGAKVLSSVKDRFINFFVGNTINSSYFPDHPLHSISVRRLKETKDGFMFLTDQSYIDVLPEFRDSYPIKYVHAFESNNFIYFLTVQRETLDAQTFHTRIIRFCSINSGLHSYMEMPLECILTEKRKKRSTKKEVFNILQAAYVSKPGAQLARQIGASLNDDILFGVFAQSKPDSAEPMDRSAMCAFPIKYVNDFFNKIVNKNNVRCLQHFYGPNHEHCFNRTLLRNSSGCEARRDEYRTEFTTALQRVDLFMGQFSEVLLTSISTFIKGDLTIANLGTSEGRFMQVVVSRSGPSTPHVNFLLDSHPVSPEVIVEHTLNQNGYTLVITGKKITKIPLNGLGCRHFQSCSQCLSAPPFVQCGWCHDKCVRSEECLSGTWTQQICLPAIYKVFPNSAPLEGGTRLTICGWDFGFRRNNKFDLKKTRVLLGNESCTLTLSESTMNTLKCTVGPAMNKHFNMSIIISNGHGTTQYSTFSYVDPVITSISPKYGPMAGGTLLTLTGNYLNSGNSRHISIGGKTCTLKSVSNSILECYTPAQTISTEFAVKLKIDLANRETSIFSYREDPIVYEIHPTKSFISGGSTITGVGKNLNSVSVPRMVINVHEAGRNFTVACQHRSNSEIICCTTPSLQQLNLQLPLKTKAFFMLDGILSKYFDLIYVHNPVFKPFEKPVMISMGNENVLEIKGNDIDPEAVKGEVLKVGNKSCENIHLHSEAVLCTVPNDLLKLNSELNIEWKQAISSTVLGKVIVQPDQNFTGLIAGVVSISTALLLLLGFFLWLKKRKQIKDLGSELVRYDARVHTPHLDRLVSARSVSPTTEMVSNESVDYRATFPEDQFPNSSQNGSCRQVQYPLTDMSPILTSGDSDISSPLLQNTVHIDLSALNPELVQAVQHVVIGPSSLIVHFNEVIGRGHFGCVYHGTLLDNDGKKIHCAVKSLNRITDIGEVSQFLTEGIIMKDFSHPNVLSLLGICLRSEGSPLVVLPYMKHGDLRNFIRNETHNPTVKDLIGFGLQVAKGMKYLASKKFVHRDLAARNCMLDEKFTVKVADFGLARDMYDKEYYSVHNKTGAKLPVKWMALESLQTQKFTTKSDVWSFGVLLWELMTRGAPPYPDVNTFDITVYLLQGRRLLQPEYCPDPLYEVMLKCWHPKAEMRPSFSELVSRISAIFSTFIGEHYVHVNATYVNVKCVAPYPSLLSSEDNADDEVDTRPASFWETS
value kind: AVG CPM, 3H-thymidine incorporation in MKN45 cells, Ab 3333.3 ng/mL (CPM)
Output spec: scalar in CPM, unitless text.

For orientation, consider the following solved cases.
>  <binder>
D11-8B8 (antibody, human IgG2, kappa, V domains shown, Human engineered IgG2 kappa c-Met antibody; also called Mab D11-8B8; D11-8B8 IgG2) VH: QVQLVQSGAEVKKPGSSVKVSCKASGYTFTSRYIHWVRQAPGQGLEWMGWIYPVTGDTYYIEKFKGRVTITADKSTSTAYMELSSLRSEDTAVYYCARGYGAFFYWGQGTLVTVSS VL: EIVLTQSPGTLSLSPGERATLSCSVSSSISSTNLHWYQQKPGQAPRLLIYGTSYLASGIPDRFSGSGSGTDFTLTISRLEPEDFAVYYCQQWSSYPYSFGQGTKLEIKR

>  <number>
11400

$$$$
>  <binder>
D11-C27G3 (antibody, human IgG2, kappa, V domains shown, Human engineered IgG2 kappa c-Met antibody; also called D11-27G3; D11-C27G3 IgG2) VH: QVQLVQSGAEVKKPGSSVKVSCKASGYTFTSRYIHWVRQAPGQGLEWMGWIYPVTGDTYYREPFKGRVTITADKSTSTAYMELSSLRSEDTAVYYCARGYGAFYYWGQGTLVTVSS VL: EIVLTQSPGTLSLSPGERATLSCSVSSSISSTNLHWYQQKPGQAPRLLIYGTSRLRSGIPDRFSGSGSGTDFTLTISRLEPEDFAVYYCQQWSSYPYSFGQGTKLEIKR

>  <number>
16900

$$$$
>  <binder>
C8-6 (antibody, human IgG2, kappa, V domains shown, Named IgG4 kappa; also called C8-6 IgG4) VH: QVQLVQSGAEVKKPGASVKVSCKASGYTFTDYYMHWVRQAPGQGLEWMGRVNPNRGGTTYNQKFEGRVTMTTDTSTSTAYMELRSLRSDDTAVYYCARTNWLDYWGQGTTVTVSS VL: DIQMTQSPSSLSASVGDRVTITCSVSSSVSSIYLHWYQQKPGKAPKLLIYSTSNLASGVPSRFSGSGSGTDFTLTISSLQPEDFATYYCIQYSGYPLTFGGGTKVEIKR

>  <number>
18200

$$$$
>  <binder>
D11-S17Y (antibody, human IgG2, kappa, V domains shown, Human engineered IgG2 kappa c-Met antibody; also called D11-S17Y IgG2) VH: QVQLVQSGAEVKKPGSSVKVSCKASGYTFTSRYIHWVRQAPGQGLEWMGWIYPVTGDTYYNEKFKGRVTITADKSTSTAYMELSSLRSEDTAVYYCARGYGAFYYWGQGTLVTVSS VL: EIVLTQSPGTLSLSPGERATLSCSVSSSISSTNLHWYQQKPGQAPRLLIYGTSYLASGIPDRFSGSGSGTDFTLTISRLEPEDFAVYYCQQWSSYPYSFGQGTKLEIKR

>  <number>
21200

$$$$

Attention now turns to another entry.
Query string: AVG CPM, 3H-thymidine incorporation in MKN45 cells, Ab 3333.3 ng/mL lookup needed for C8-co-16 (antibody, human IgG2, kappa, V domains shown, Named IgG4 kappa; also called C8-co-16 IgG4) VH: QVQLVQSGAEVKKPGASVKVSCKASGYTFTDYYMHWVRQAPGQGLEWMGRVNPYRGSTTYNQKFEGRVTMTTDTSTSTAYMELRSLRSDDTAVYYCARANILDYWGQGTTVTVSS VL: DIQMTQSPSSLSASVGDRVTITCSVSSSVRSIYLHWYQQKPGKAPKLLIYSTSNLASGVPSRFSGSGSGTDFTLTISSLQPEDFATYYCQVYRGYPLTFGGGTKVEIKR , thanks.
Result string: 13000
